# testProtocol: self-splicing fitness, log relative to wild type (ln ratio); higher = more splicing; Tetrahymena group I intron in knt gene, E. coli kanamycin selection, DiMSum; sequences stand for … in CUCUCU…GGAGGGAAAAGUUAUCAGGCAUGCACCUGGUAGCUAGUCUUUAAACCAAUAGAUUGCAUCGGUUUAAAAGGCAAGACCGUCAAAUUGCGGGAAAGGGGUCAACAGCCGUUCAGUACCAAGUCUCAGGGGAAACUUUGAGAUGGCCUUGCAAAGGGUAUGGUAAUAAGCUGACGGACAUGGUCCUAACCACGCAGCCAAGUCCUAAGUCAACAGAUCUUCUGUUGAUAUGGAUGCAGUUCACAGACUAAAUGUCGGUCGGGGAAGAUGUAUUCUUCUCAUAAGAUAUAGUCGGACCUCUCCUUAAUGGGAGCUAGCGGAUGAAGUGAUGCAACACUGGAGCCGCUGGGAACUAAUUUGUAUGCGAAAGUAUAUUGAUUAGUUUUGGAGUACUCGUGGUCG;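 also: selection with 25 µg/mL kanamycin versus none on LB agar overnight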
# settings: 37 °C
experimentalEndpoint: self-splicing fitness (ln)

- constructSequence: "GUGAAGCAAUAUUACGUUAA"
  self-splicing fitness (ln): -1.74
- constructSequence: "GUCCAGCAAUAUUACGAACC"
  self-splicing fitness (ln): -0.224
- constructSequence: "CCCGAGCAAUAUUACGUAGU"
  self-splicing fitness (ln): -2.58
- constructSequence: "GCGCAGCAAUAUUACGGAGA"
  self-splicing fitness (ln): -1.69
- constructSequence: "CCGAAGCAAUAUUACGGAGC"
  self-splicing fitness (ln): -2.74

input: self-splicing fitness (ln) for `GGCUAGCAAUAUUACGACUC` ?
output: 0.604

input: Query `AUACAGCAAUAUUACGCAUC` next
output: -2.8

input: Query `AAAAAGCAAUAUUACGAAUG` next
output: -0.947

Measured values drawn from the supplement of paper PMC7877785 for this set.
